target: pyruvate kinase (PK) activity in 661W cells (Mus musculus, UniProt P52480); construct: endogenous in cells; host or cells: 661W photoreceptor-like cells; assay: PK activity in 661W cell lysates after 2 h incubation with activator; format: cell-based; conditions: n = 3, read-out: 661W Cells Max Activation
Sequence (P52480 whole entry): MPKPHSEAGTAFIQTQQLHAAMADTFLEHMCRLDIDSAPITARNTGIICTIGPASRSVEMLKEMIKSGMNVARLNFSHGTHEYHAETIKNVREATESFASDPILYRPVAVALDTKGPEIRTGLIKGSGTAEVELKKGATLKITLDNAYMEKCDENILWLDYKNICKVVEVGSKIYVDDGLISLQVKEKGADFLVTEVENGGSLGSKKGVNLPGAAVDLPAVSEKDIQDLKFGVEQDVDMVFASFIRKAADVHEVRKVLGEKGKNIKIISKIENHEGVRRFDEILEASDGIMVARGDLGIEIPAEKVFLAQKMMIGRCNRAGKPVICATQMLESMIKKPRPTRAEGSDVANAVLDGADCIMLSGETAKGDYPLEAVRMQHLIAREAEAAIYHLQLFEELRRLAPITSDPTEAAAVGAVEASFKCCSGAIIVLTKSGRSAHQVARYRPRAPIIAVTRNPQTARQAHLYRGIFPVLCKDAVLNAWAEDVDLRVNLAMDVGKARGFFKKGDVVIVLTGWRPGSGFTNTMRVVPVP
readout_name: Emax (%)

>  <compound>
Cc1cccc(Cn2ncc3c4cc(F)c(CN5CCOCC5)cc4n(C)c3c2=O)n1 [Compound 16]

>  <readout_name>
Emax

>  <reported_value>
268

$$$$
>  <compound>
CSc1ccc2c3cnn(Cc4cccc(N)c4)c(=O)c3n(C)c2c1 [Compound 4]

>  <readout_name>
Emax

>  <reported_value>
256

$$$$
>  <compound>
Cn1c2cc([S+](C)[O-])ccc2c2cnn(Cc3cccc(N)c3)c(=O)c21 (centres unmarked) [Compound 2]

>  <readout_name>
Emax

>  <reported_value>
355

$$$$
>  <compound>
Cn1c2cc(CNCCO)c(F)cc2c2cnn(Cc3ccccc3F)c(=O)c21 [Compound 20]

>  <readout_name>
Emax

>  <reported_value>
288

$$$$
>  <compound>
Cn1c2cc([S+](C)[O-])sc2c2cnn(Cc3cccc(N)c3)c(=O)c21 (centres unmarked) [ML-265, reference compound]

>  <readout_name>
Emax

>  <reported_value>
370

$$$$
>  <compound>
Cc1cccc(Cn2ncc3c4cc(F)c(CN5CCCC5)cc4n(C)c3c2=O)n1 [Compound 18]

>  <readout_name>
Emax

>  <reported_value>
257

$$$$
>  <compound>
Cc1cccc(Cn2ncc3c4cc(F)c(CN(C)C)cc4n(C)c3c2=O)n1 [Compound 19]

>  <readout_name>
Emax

>  <reported_value>
297

$$$$
>  <compound>
Cn1c2cc(CN3CCNCC3)c(F)cc2c2cnn(Cc3ccccc3F)c(=O)c21 [Compound 21]

>  <readout_name>
Emax

>  <reported_value>
299

$$$$

====

target: pyruvate kinase (PK) activity in 661W cells (Mus musculus, UniProt P52480); construct: endogenous in cells; host or cells: 661W photoreceptor-like cells; test: PK activity in 661W cell lysates after 2 h incubation with activator; format: cell-based; details: n = 3, read-out: 661W Cells Max Activation

>  <molecule>
Cc1ccc2c3cnn(Cc4cccc(N)c4)c(=O)c3n(C)c2c1 [Compound 5]

>  <unit_tag>
%

>  <Emax>
236

$$$$
>  <molecule>
Cc1cccc(Cn2ncc3c4cc(F)c(CNCCO)cc4n(C)c3c2=O)n1 [Compound 17]

>  <unit_tag>
%

>  <Emax>
430

$$$$
>  <molecule>
Cc1ccc2c3cnn(Cc4ccccc4)c(=O)c3n(C)c2c1 [Compound 1]

>  <unit_tag>
%

>  <Emax>
219

$$$$
>  <molecule>
Cn1c2cc([S+](C)[O-])ccc2c2cnn(Cc3ccccc3)c(=O)c21 (stereo not shown) [Compound 3]

>  <unit_tag>
%

>  <Emax>
280

$$$$

====

assay: Aqueous solubility (Analiza, nitrogen detector); assay type: physicochemical; details: aqueous buffer, thermodynamic from solid; PBS, pH 7.4, 24 h, ambient temperature (Table 3)
# solubility at 24 h >= 400 µM gives yes, anything below gives no

>  <molecule>
Cc1cccc(Cn2ncc3c4cc(F)c(CNCCO)cc4n(C)c3c2=O)n1 [Compound 17]

>  <label_value>
yes

$$$$
>  <molecule>
Cn1c2cc(CNCCO)c(F)cc2c2cnn(Cc3ccccc3F)c(=O)c21 [Compound 20]

>  <label_value>
yes

$$$$
>  <molecule>
Cn1c2cc(CN3CCNCC3)c(F)cc2c2cnn(Cc3ccccc3F)c(=O)c21 [Compound 21]

>  <label_value>
no

$$$$
>  <molecule>
Cc1cccc(Cn2ncc3c4cc(F)c(CN5CCCC5)cc4n(C)c3c2=O)n1 [Compound 18]

>  <label_value>
yes

$$$$
